Tested on: K. pneumoniae CQ1947
method: Broth microdilution MIC, glycosides with or without polymyxins
Format: cell-based, Klebsiella pneumoniae
experimental setup: combination with the lowest FICI
readout: MICA(A + B) (MIC of compound in combination with colistin) (µg/mL)

* CCCCCCCCCCCC[C@H]1O[C@H](C)C[C@H](O)[C@H]1O [Compound 5] | 3.125
* CCCCCCCCCCCCO[C@@H]1C[C@@H](O)[C@H](O)[C@@H](CO)O1 [Compound 4] | 0.4
* CCCCCCCCCCCCO[C@@H]1O[C@H](C)C[C@H](O)[C@H]1O [Compound 2] | 0.8
* CCCCCCCCCCCCO[C@H]1O[C@H](C)C[C@H](O)[C@H]1O [Compound 1] | 3.125
* CCCCCCCCCCCCO[C@H]1C[C@H](O)[C@@H](O)[C@H](C)O1 [Compound 3] | 0.4
